Experiment: in-vivo pharmacokinetic study on SD rats, intravenous and intranasal administration
Settings: rat, plasma, IV@1 mg/kg, read-out: Volume of distribution steady-state Vss
experimental_readout: Vd (L/kg)

# compound, experimental_readout, result_unit, value_reported
rows = [
    ("Cc1cc(C[C@@H](NC(=O)N2CCC(c3cc4c([nH]c3=O)SCCC4)CC2)C(=O)N2CCN(C3CCN(C)CC3)CC2)cc2cn[nH]c12 [Example 6]", "Vd", "L/kg", 0.29),
]

* * *

Test: in-vivo pharmacokinetic study on SD rats, intravenous and intranasal administration
Conditions: male, rat, plasma, IV@1 mg/kg, read-out: Area under curve AUC
experimental_readout: AUC

# molecule, experimental_readout, value_reported
records = [
    ("Cc1cc(C[C@@H](NC(=O)N2CCC(c3cc4ccccc4[nH]c3=O)CC2)C(=O)N2CCN(C3CCN(C)CC3)CC2)cc2cn[nH]c12 [Zavegepant, zavegepant, reference compound]", "AUC", "3620 ng·h/mL"),
    ("Cc1cc(C[C@@H](NC(=O)N2CCC(c3cc4c([nH]c3=O)SCC4)CC2)C(=O)N2CCN(C3CCN(C)CC3)CC2)cc2cn[nH]c12", "AUC", "2850 ng·h/mL"),
]
